- target_or_test_system: PARG (Homo sapiens, UniProt Q86W56)
- Sequence (Q86W56 whole entry): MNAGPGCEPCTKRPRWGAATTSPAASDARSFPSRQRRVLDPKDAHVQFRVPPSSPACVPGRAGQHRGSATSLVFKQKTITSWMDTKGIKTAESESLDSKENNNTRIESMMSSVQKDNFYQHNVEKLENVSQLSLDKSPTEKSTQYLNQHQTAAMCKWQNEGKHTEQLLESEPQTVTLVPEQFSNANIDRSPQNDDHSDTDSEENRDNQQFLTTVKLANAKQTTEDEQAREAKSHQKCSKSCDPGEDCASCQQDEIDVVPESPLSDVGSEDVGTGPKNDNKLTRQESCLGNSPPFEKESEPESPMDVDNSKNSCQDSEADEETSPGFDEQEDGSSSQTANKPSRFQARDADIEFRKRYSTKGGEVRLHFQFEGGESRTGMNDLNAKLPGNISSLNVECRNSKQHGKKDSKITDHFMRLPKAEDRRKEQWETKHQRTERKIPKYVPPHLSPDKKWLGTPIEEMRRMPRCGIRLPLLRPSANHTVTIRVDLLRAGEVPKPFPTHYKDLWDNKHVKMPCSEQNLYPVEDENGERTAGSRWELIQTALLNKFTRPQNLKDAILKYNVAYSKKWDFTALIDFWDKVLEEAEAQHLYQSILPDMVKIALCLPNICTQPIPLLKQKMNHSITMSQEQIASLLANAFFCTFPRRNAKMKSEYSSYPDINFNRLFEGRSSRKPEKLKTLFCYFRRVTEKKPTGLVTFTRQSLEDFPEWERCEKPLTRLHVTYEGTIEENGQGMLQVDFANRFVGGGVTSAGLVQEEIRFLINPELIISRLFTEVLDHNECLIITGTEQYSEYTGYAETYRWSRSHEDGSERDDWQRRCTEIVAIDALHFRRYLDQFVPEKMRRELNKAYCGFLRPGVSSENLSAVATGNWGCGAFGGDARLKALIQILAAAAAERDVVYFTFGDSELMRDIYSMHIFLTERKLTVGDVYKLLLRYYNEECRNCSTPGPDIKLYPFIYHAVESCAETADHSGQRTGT
- experiment_description: Biochemical assay (PARG, TFMU-ADPr substrate)
- conditions_used: PARG, TFMU-ADPr substrate
Records here are stratified by IC50; strata: low-valued = under 3 nM, mid-valued = from 3 nM up to 20 nM, high-valued = 20 nM and over

Example cases with answers are listed next.
INSERT INTO measurements (compound, assigned_class) VALUES
  ('[2H]C([2H])([2H])OCC1CN(c2cc(S(=O)(=O)NC3(C)COC3)cn3c(-c4nnc(C(F)F)s4)nc(Cl)c23)CCN1 (stereo not drawn) [Example 391]', 'mid-valued'),
  ('CC(C)C(=O)N1CCN(c2cc(S(=O)(=O)NC3(C#N)CC3)cn3c(-c4nnc(C(F)(F)F)s4)nc(Cl)c23)C[C@H]1C [Example 130]', 'high-valued'),
  ('C[C@H]1CN(c2cc(S(=O)(=O)NC3(C)COC3)cn3c(-c4nnc(C(F)F)s4)nc(Cl)c23)C[C@H](CO)N1 [Example 402]', 'high-valued'),
  ('N#CC1(NS(=O)(=O)c2cc(N3CCN(C(=O)c4ccno4)CC3)c3cnc(-c4nnc(C(F)(F)F)s4)n3c2)CC1 [Example 255]', 'mid-valued');

In: Tag the class for N#CC1(NS(=O)(=O)c2cc(N3CCN(C(=O)C4C5COCC54)CC3)c3cnc(-c4nnc(C(F)(F)F)s4)n3c2)CC1 (stereo not drawn) [Example 297]
Out: high-valued

In: GET /class?item= CC1(NS(=O)(=O)c2cc(N3CCC(O)CC3)c3cnc(-c4nnc(C(F)F)s4)n3c2)CC1 [Example 305]
Out: mid-valued

---

Would you mind telling me the reported log10(IC50) of each entry?
- target_or_test_system: PARG (Homo sapiens)
- experiment_description: Biochemical assay (PARG, TFMU-ADPr substrate)
- conditions_used: PARG, TFMU-ADPr substrate
Hey, these are logged values: log10 of IC50, nM being the unit before logging.

Recorded results for 8 compounds are shown here.
INSERT INTO measurements (compound, endpoint_label, observed_result) VALUES
  ('Cc1nnc(-c2cnc3c(N4CCN(C(=O)C(C)C)CC4)cc(S(=O)(=O)NC4(C#N)CC4)cn23)s1', 'log10(IC50)', 3.32),
  ('CC(C)C(=O)N1CCN(c2cc(S(=O)(=O)NC3CC3)cn3c(-c4nnc(C(F)(F)F)s4)cnc23)CC1', 'log10(IC50)', 2.04),
  ('COC1(C(=O)N2CCN(c3cc(S(=O)(=O)NC4(C#N)CC4)cn4c(-c5nnc(C(F)F)s5)ncc34)CC2)CNC1', 'log10(IC50)', 0.18),
  ('N#CC1(NS(=O)(=O)c2cc(N3CCC(CO)(C(F)(F)F)CC3)c3cnc(-c4nnc(C(F)F)s4)n3c2)CC1', 'log10(IC50)', 2.50),
  ('N#CC1(NS(=O)(=O)c2cc(N3CCN(C(=O)[C@H]4CCCO4)CC3)c3cnc(-c4nnc(C(F)(F)F)s4)n3c2)CC1', 'log10(IC50)', 1.32),
  ('CN1CCN(c2cc(S(=O)(=O)NC3(C#N)CC3)cn3c(-c4nnc(C(F)F)s4)ncc23)CC1', 'log10(IC50)', 1.21),
  ('C=CC(=O)N1CC=C(c2cnc3c(N4CCN(C(=O)C(C)C)CC4)cc(S(=O)(=O)NC4(C#N)CC4)cn23)CC1', 'log10(IC50)', 2.96),
  ('CC(C)C(=O)N1CC=C(c2cc(S(=O)(=O)NC3(C#N)CC3)cn3c(-c4nnc(C(F)F)s4)cnc23)CC1', 'log10(IC50)', 0.38);

List reported log10(IC50) for each of these compounds:
1. COC1(CN2CCN(c3cc(S(=O)(=O)NC4(C)CC4)cn4c(-c5nnc(C(F)F)s5)ncc34)CC2)CC1
2. CC1(NS(=O)(=O)c2cc(N3CCN(C(=O)c4ccno4)CC3)c3cnc(-c4nnc(C(F)(F)F)s4)n3c2)CC1
3. CN(C)CCN(C)C(=O)N1CCN(c2cc(S(=O)(=O)NC3(C)COC3)cn3c(-c4nnc(C(F)(F)F)s4)ncc23)CC1
4. CC1(NS(=O)(=O)c2cc(N3CCN(C(=O)[C@H]4CCN4CCF)CC3)c3cnc(-c4nnc(C(F)(F)F)s4)n3c2)CC1
5. N#CC1(NS(=O)(=O)c2cc(N3CCN(C(=O)[C@H]4CCCN4)CC3)c3cnc(-c4nnc(C(F)(F)F)s4)n3c2)CC1
6. N#CC1(NS(=O)(=O)c2ccc3c(C4=CC5(CC4)CN(C(=O)C4CC4(F)F)C5)nc(-c4nnc(C(F)(F)F)s4)n3c2)CC1 (centres unmarked)
7. C[C@@H]1CN(c2cc(S(=O)(=O)NC3(C#N)CC3)cn3c(-c4nnc(C(F)F)s4)ncc23)CCN1C(CO)C(F)(F)F (some centres unmarked)

Out:
1.30
0.88
0.66
0.43
2.20
1.50
2.42

Would you mind listing log10(IC50) for each of the following compounds?
1. CC(C)C(=O)N1CCN(c2cc(S(=O)(=O)NC3(CF)COC3)cn3c(-c4nnc(C(F)F)s4)nnc23)CC1
2. Cc1nc(-c2nnc(C(F)(F)F)s2)n2cc(S(=O)(=O)NC3(C#N)CC3)cc(N3CCN(C(=O)C4CCO4)CC3)c12 (centres unmarked)
3. C[C@@H]1CN(c2cc(S(=O)(=O)NC3(C#N)CC3)cn3c(-c4nnc(C(F)F)s4)ncc23)CCN1C(=O)C1CNC1
4. N#CC1(NS(=O)(=O)c2ccc3c(C4CCC5(CNC5)C4)nc(-c4nnc(C(F)F)s4)n3c2)CC1 (centres unmarked)
5. COC1(C(=O)N2CCN(c3cc(S(=O)(=O)NC4CC4)cn4c(-c5nnc(C(F)(F)F)s5)ncc34)CC2)CC1

Out:
[1.45, 1.00, 0.78, 0.73, 0.51]

Cited source for all entries: patent US20260258035A1
